- measurement_protocol: Tmax in dog at 10 mg/kg, po
- Format: ADME, organism-based, Canis lupus familiaris
- Design: dose 10 mg/kg, route oral
- condition_context: in vivo
parameter: Tmax (min)
I only need the number, in min, no unit after it.

# query: Tmax of entry `O=C(NCC(=O)N1CC[C@H](N[C@H]2CC[C@@](O)(c3ccc(-c4ncccn4)cn3)CC2)C1)c1cccc(C(F)(F)F)c1`
15

---

- test_target: C-C chemokine receptor type 2 (Mus musculus)
- Sequence (P51683 whole entry): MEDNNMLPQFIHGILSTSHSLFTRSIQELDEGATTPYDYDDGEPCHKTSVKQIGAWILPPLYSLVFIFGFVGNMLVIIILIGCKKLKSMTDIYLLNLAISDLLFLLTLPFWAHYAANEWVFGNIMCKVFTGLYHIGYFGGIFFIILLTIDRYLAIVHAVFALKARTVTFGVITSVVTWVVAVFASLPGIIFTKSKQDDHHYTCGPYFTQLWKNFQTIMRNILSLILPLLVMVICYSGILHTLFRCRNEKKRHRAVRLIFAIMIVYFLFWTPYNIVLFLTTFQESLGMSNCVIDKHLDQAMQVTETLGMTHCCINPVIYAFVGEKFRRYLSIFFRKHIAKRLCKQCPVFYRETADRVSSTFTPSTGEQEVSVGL
- measurement_protocol: Binding affinity to mouse CCR2
parameter: pIC50
pIC50 here: minus log base 10 of the concentration, concentration in moles per litre.

Looking for the measured pIC50 of `O=C(NCC(=O)N1CC[C@H](N[C@H]2CC[C@@](O)(c3ccc(-c4ncccn4)cn3)CC2)C1)c1cccc(C(F)(F)F)c1` , can you help?
7.77
